test system: HeLa Kyoto; assay: melting temperature (median over replicates), in situ; higher = more thermally stable; conditions: cell cycle stage: G1/S;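 also: HeLa Kyoto cells synchronized by double thymidine or nocodazole block, proteins quantified by TMT10plex mass spectrometry, three independent biological replicates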
quantity: melting temperature (°C)
Kindly answer with a numeric value in °C, unit omitted.

Request: Fill in melting temperature for record MDPGDDWLVESLRLYQDFYAFDLSGATRVLEWIDDKGVFVAGYESLKKNEILHLKLPLRLSVKENKGLFPERDFKVRHGGFSDRSIFDLKHVPHTRLLVTSGLPGCYLQVWQVAEDSDVIKAVSTIAVHEKEESLWPRVAVFSTLAPGVLHGARLRSLQVVDLESRKTTYTSDVSDSEELSSLQVLDADTFAFCCASGRLGLVDTRQKWAPLENRSPGPGSGGERWCAEVGSWGQGPGPSIASLGSDGRLCLLDPRDLCHPVSSVQCPVSVPSPDPELLRVTWAPGLKNCLAISGFDGTVQVYDATSWDGTRSQDGTRSQVEPLFTHRGHIFLDGNGMDPAPLVTTHTWHPCRPRTLLSATNDASLHVWDWVDLCAPR [WDR73]
Result: 54.8

Request: Supply measured melting temperature of MKLPARVFFTLGSRLPCGLAPRRFFSYGTKILYQNTEALQSKFFSPLQKAMLPPNSFQGKVAFITGGGTGLGKGMTTLLSSLGAQCVIASRKMDVLKATAEQISSQTGNKVHAIQCDVRDPDMVQNTVSELIKVAGHPNIVINNAAGNFISPTERLSPNAWKTITDIVLNGTAFVTLEIGKQLIKAQKGAAFLSITTIYAETGSGFVVPSASAKAGVEAMSKSLAAEWGKYGMRFNVIQPGPIKTKGAFSRLDPTGTFEKEMIGRIPCGRLGTVEELANLAAFLCSDYASWINGAVIKFDGGEEVLISGEFNDLRKVTKEQWDTIEELIRKTKGS [DECR1] in your reply.
Result: 55.7

Request: State its melting temperature: MAMRQTPLTCSGHTRPVVDLAFSGITPYGYFLISACKDGKPMLRQGDTGDWIGTFLGHKGAVWGATLNKDATKAATAAADFTAKVWDAVSGDELMTLAHKHIVKTVDFTQDSNYLLTGGQDKLLRIYDLNKPEAEPKEISGHTSGIKKALWCSEDKQILSADDKTVRLWDHATMTEVKSLNFNMSVSSMEYIPEGEILVITYGRSIAFHSAVSLDPIKSFEAPATINSASLHPEKEFLVAGGEDFKLYKYDYNSGEELESYKGHFGPIHCVRFSPDGELYASGSEDGTLRLWQTVVGKTYGLWKCVLPEEDSGELAKPKIGFPETTEEELEEIASENSDCIFPSAPDVKA [STRAP]
Result: 52.3

Request: Give a short answer stating reported melting temperature for MAEVSIDQSKLPGVKEVCRDFAVLEDHTLAHSLQEQEIEHHLASNVQRNRLVQHDLQVAKQLQEEDLKAQAQLQKRYKDLEQQDCEIAQEIQEKLAIEAERRRIQEKKDEDIARLLQEKELQEEKKRKKHFPEFPATRAYADSYYYEDGGMKPRVMKEAVSTPSRMAHRDQEWYDAEIARKLQEEELLATQVDMRAAQVAQDEEIARLLMAEEKKAYKKAKEREKSSLDKRKQDPEWKPKTAKAANSKSKESDEPHHSKNERPARPPPPIMTDGEDADYTHFTNQQSSTRHFSKSESSHKGFHYKH [CCDC50] .
Result: 57.7

Request: Give recorded melting temperature. MQPASAKWYDRRDYVFIEFCVEDSKDVNVNFEKSKLTFSCLGGSDNFKHLNEIDLFHCIDPNDSKHKRTDRSILCCLRKGESGQSWPRLTKERAKLNWLSVDFNNWKDWEDDSDEDMSNFDRFSEMMNNMGGDEDVDLPEVDGADDDSQDSDDEKMPDLE [PTGES3]
Result: 48.7

Request: Find the measured melting temperature of MELFLAGRRVLVTGAGKGIGRGTVQALHATGARVVAVSRTQADLDSLVRECPGIEPVCVDLGDWEATERALGSVGPVDLLVNNAAVALLQPFLEVTKEAFDRSFEVNLRAVIQVSQIVARGLIARGVPGAIVNVSSQCSQRAVTNHSVYCSTKGALDMLTKVMALELGPHKIRVNAVNPTVVMTSMGQATWSDPHKAKTMLNRIPLGKFAEVEHVVNAILFLLSDRSGMTTGSTLPVEGGFWAC [DCXR] and report it.
Result: 57.7

Request: Give melting temperature for MDGEEKTYGGCEGPDAMYVKLISSDGHEFIVKREHALTSGTIKAMLSGPGQFAENETNEVNFREIPSHVLSKVCMYFTYKVRYTNSSTEIPEFPIAPEIALELLMAANFLDC [TCEB1]
Result: 52.2

Request: Fill in reported melting temperature for this entry: MTTYSDKGAKPERGRFLHFHSVTFWVGNAKQATSFYCSKMGFEPLAYRGLETGSREVVSHVIKQGKIVFVLSSALNPWNKEMGDHLVKHGDGVKDIAFEVEDCDYIVQKARERGAKIMREPWVEQDKFGKVKFAVLQTYGDTTHTLVEKMNYIGQFLPGYEAPAFMDPLLPKLPKCSLEMIDHIVGNQPDQEMVSASEWYLKNLQFHRFWSVDDTQVHTEYSSLRSIVVANYEESIKMPINEPAPGKKKSQIQEYVDYNGGAGVQHIALKTEDIITAIRHLRERGLEFLSVPSTYYKQLREKLKTAKIKVKENIDALEELKILVDYDEKGYLLQIFTKPVQDRPTLFLEVIQRHNHQGFGAGNFNSLFKAFEEEQNLRGNLTNMETNGVVPGM [HPD]
Result: 53.6

Request: Tell me measured melting temperature for MESYDIIANQPVVIDNGSGVIKAGFAGDQIPKYCFPNYVGRPKHMRVMAGALEGDLFIGPKAEEHRGLLTIRYPMEHGVVRDWNDMERIWQYVYSKDQLQTFSEEHPVLLTEAPLNPSKNREKAAEVFFETFNVPALFISMQAVLSLYATGRTTGVVLDSGDGVTHAVPIYEGFAMPHSIMRVDIAGRDVSRYLRLLLRKEGVDFHTSAEFEVVRTIKERACYLSINPQKDEALETEKVQYTLPDGSTLDVGPARFRAPELLFQPDLVGDESEGLHEVVAFAIHKSDMDLRRTLFANIVLSGGSTLFKGFGDRLLSEVKKLAPKDIKIKISAPQERLYSTWIGGSILASLDTFKKMWVSKKEYEEDGSRAIHRKTF [ACTR1B] please.
Result: 54

Request: Give the measured melting temperature for MAMLRVQPEAQAKVDVFREDLCTKTENLLGSYFPKKISELDAFLKEPALNEANLSNLKAPLDIPVPDPVKEKEKEERKKQQEKEDKDEKKKGEDEDKGPPCGPVNCNEKIVVLLQRLKPEIKDVIEQLNLVTTWLQLQIPRIEDGNNFGVAVQEKVFELMTSLHTKLEGFHTQISKYFSERGDAVTKAAKQPHVGDYRQLVHELDEAEYRDIRLMVMEIRNAYAVLYDIILKNFEKLKKPRGETKGMIY [PSME1]
Result: 52.4
